assayed-system: Acetylcholinesterase (Homo sapiens, UniProt P22303)
Sequence (P22303 whole entry): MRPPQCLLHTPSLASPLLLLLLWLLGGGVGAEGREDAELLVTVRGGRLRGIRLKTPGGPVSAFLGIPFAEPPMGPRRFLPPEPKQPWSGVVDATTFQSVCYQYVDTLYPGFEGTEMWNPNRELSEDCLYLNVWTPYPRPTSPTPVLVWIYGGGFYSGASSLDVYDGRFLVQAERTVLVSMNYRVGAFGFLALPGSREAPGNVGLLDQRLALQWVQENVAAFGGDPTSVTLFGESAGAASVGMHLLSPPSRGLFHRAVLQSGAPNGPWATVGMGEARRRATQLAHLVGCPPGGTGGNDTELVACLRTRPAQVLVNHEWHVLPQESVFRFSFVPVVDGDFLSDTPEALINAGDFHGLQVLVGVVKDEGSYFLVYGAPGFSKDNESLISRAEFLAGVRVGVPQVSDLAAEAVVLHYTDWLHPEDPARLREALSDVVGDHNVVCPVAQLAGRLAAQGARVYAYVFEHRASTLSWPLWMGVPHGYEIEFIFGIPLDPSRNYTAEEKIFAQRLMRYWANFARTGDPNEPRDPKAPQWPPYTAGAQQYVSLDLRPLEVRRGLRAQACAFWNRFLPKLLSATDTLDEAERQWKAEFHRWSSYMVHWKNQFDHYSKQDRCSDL
measurement-setup: read-out: IC50 (converted)
Description: Inhibition of AChE (unknown origin) using acetylthiocholine iodide as substrate incubated for 20 min prior to substrate addition measured after 20 min by Ellman's method
Item-by-item account of IC50

Example entries begin here.
>  <compound>
COc1cc2oc(=O)ccc2c(OC)c1OC [5,6,7-TRIMETHOXYCOUMARIN]

>  <measurement>
> 423 µM

$$$$
>  <compound>
COc1ccc2c(OC)c3ccoc3nc2c1OC [SKIMMIANINE]

>  <measurement>
33.2 µM

$$$$
>  <compound>
COc1c2[nH]c3occc3c(OC)c-2ccc1=O [HAPLOPINE]

>  <measurement>
> 408 µM

$$$$

Query: IC50 of COc1cc(=O)[nH]c2c(OC)cccc12 [EDULITINE] on Acetylcholinesterase (Homo sapiens, UniProt P22303)?
Result: > 487 µM
